Sourced from patent US20220380459A1

biological target: T1, deglycosylated V domain of human CD33 (human, UniProt P20138 18-139, limits assumed, N-glycans removed by PNGase); assay: SPR, Fab captured, 37C;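 also: biacore 8K surface plasmon resonance with Fabs held on an amine-coupled anti-Fab antibody surface, soluble monomeric CD33 domain injected as analyte, double-referenced 1:1 binding fit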
T1 construct: V domain deglycosylated by PNGase before testing; also called deglycosylated V CD33
assayReadout: Kd (nM)
A number alone suffices; assume nM.

Solved entries:
binder: ADI-10177 Fab (Fab, V domains shown, Fab fragment; also called Ab2) VH: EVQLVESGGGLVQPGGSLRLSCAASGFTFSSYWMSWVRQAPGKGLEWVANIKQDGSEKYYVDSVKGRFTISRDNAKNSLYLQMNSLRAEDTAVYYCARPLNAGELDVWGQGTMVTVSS VL: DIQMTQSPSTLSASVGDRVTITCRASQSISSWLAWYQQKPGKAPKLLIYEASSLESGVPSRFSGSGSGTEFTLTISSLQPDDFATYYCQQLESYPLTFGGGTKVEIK
quantityUnit: nM
testValue: 38.2
--
binder: ADI-11826 Fab (Fab, V domains shown, Fab fragment; also called Ab26) VH: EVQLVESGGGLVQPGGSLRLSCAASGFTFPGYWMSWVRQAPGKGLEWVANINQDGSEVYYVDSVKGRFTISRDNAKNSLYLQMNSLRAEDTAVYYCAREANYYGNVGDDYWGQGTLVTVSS VL: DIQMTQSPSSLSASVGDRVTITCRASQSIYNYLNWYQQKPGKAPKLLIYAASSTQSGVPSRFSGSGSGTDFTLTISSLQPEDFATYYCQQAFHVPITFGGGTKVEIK
quantityUnit: nM
testValue: 3.69
--
binder: ADI-11825 Fab (Fab, V domains shown, Fab fragment; also called Ab25) VH: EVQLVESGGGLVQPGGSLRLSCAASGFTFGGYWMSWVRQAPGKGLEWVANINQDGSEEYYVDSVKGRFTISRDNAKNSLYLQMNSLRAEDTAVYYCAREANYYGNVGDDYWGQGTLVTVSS VL: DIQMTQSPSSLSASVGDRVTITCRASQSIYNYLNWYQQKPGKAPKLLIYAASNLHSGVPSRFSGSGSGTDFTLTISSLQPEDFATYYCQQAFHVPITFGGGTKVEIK
quantityUnit: nM
testValue: 3.11
--
binder: ADI-10158 Fab (Fab, V domains shown, Fab fragment; also called Ab14) VH: QVQLQQWGAGLLKPSETLSLTCAVYGGSFSGYYWSWIRQPPGKGLEWIGEIDHSGSTNYNPSLKSRVTISVDTSKNQFSLKLSSVTAADTAVYYCARQGIHGLRYFDLWGRGTLVTVSS VL: EIVMTQSPATLSLSPGERATLSCRASQSVSSYLAWYQQKPGQAPRLLIYDASNRATGIPARFSGSGSGTDFTLTISSLEPEDFAVYYCQQDHNFPYTFGGGTKVEIK
quantityUnit: nM
testValue: 88.1

Now for the binder whose Kd we want.
Value of Kd reported for the binder ADI-10161 Fab (Fab, V domains shown, Fab fragment; also called Ab16) VH: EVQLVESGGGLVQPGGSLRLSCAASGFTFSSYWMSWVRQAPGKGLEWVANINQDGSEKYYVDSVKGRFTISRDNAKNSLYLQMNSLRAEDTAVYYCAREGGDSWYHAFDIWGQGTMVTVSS VL: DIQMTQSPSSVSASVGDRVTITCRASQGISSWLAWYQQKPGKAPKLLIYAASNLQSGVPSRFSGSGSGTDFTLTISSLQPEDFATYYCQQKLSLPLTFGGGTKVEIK is 85.6
